System: Plasmodium falciparum
Assay: GSK_TCMDC: Inhibition of Plasmodium falciparum Dd2 in whole red blood cells, using parasite LDH activity as an index of growth. Test compounds present at 2uM
Assay type: functional
The following compounds are shown together with reported Inhibition values.

{"columns": ["COMPOUND", "U", "Inhibition"],
 "data": [
  ["OC1=C2C(=Nc3ccccc3SC2c2ccccc2)c2ccccc21 (centres undefined)", "%", 94],
  ["CN(C)c1ccc(CN2CCC(NC(=O)c3ccc(-c4cccc(C(F)(F)F)c4)s3)CC2)cc1.O=C(O)C(F)(F)F", "%", 40],
  ["Oc1ccc2[nH]c(-c3cccc(F)c3)nc2c1CN1CCC(O)(c2ccccc2)CC1", "%", 72],
  ["Cc1noc(C)c1-c1cccc(CNCc2ccc(-c3ccc(-c4nc5ccccc5[nH]4)s3)cc2)c1.O=C(O)C(F)(F)F", "%", 79]
]}

These data points were gathered from ChEMBL document CHEMBL1157539.
